# method-description: Sulforhodamine B (SRB) cell viability assay
# Assay type: cell-based
# experimental-parameters: cell viability, β-amyloid combined with Cyclic T14, β-Amyloid 10 μM + Cyclic T14 100 nM, 1 hour
Residues, ends and D or L forms follow the SMILES beside them.
parameter-measured: viability (%)
Entry rule: numbers only, all in %.

What the record says about CSCC[C@@H]1NC(=O)[C@H](Cc2ccc(O)cc2)NC(=O)[C@H](CO)NC(=O)[C@H](CO)NC(=O)[C@H](Cc2c[nH]c3ccccc23)NC(=O)[C@H](CCCNC(=N)N)NC(=O)[C@H](Cc2c[nH]cn2)NC(=O)[C@H](Cc2ccccc2)NC(=O)[C@H](CCC(=O)O)NC(=O)[C@H](C)NC(=O)[C@H](CCCCN)NC(=O)[C@H](Cc2c[nH]c3ccccc23)NC(=O)[C@H](Cc2c[nH]cn2)NC(=O)[C@H](C(C)C)NC1=O [Cyclic T14] (cyclo(AEFHRWSSYMVHWK)) : viability is 94.5
